target: LIMK2KD (Homo sapiens); construct: The cDNA coding for LIMK2 residues 330 to 632 was PCR amplified; His6 (N, cleaved yes); made in house; host or cells: baculovirus; Sf9 for virus, TriEx insect cells for expression; test: Differential (dynamic) scanning fluorimetry (DSF) assay, LIMK2KD; format: binding; conditions: LIMK2KD, compound 10 µM, single shot; read-out: TM Shift LIMK2 (K)
Sequence (P53671 330-632): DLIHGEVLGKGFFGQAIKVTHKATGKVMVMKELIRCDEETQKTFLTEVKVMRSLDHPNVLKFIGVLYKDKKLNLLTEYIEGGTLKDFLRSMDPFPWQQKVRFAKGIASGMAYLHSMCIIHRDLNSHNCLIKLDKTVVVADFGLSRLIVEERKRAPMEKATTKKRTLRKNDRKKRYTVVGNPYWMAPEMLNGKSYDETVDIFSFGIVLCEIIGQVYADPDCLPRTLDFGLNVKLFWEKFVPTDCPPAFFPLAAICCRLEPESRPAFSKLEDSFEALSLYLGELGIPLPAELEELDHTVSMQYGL
observable: ΔTm at 10 µM (°C)

Examples with their reported ΔTm at 10 µM follow.
                                   compound  result_value
0  COc1cc2nccc(Oc3ccc(NC(=O)NC4CC4)c(Cl)c3)c2cc1C(N)=O [Lenvatinib (E7080), Lenvatinib]           0.1
1  CNC(=O)c1nn(C)c2c1C(C)(C)Cc1cnc(Nc3ccc(N4CCN(C)CC4)cc3)nc1-2 [Milciclib (PHA-848125), Milciclib]           0.6
2  Cc1cccc(-c2nn3c(c2-c2ccnc4ccc(C(N)=O)cc24)CCC3)n1 [Galunisertib]          -0.5

P: C=CC(=O)Nc1ccc2ncnc(Nc3ccc(OCc4cccc(F)c4)c(Cl)c3)c2c1 [AST-1306]
Q: Nc1ncnc2c1c(-c1cccc(OCc3ccccc3)c1)cn2[C@H]1C[C@@H](CN2CCC2)C1 [NVP-AEW541]
QUERY: Name the one with the greater ΔTm at 10 µM value, either P or Q as given. Pick one; state its label.
RESULT: Q
(Q: 0.4 °C, P: 0.1 °C)

* * *

target: LIMK2KD (Homo sapiens); construct: The cDNA coding for LIMK2 residues 330 to 632 was PCR amplified; His6 (N, cleaved yes); made in house; host or cells: baculovirus; Sf9 for virus, TriEx insect cells for expression; assay: Differential (dynamic) scanning fluorimetry (DSF) assay, LIMK2KD; format: binding; details: LIMK2KD, compound 10 µM, single shot; read-out: TM Shift LIMK2 (K)
observable: ΔTm at 10 µM (°C)

1: CC(C)(O)CC(=O)NCCn1ccc2ncnc(Nc3ccc(Oc4cccc(C(F)(F)F)c4)c(Cl)c3)c21
2: O=c1sn(-c2cccc3ccccc23)c(=O)n1Cc1ccccc1
3: Oc1cccc(-c2nc(N3CCOCC3)c3oc4ncccc4c3n2)c1
QUERY: Place the item with the largest ΔTm at 10 µM first, then continue in falling order, using the list above. Answer by listing the labels in the order asked for.
RESULT: 2, 3, 1
(2: 3.9 °C, 3: 0.3 °C, 1: 0 °C)

* * *

biological target: LIMK1KD (Homo sapiens, UniProt P53667); construct: His6 (N, cleaved yes); made in house; host or cells: baculovirus; Sf9 for virus, TriEx insect cells for expression; assay: Differential (dynamic) scanning fluorimetry (DSF) assay, LIMK1KD; format: binding; details: 2 µM LIMK1KD, compound 10 µM, single shot; read-out: TM Shift LIMK1 (K)
Sequence (P53667 330-637): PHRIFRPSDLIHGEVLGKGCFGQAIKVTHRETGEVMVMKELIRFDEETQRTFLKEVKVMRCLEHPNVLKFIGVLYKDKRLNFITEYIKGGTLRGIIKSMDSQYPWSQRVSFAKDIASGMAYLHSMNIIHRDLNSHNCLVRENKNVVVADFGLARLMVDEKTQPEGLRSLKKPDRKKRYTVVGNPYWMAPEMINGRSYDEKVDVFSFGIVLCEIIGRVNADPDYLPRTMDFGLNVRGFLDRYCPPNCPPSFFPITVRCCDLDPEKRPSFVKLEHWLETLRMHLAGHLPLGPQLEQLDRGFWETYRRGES
observable: ΔTm at 10 µM (°C)

                                   compound  unit_abbreviation  result_value
0  CNC(=O)c1cc(COc2nnc(Nc3ccc(Cl)cc3)c3ccoc23)ccn1                 °C          -1.4
1  S=C(NCc1ccc2c(c1)OCO2)N1CCN(c2ncnc3c2oc2ccccc23)CC1                 °C          -0.3
2   O=c1sn(-c2cccc3ccccc23)c(=O)n1Cc1ccccc1                 °C          -0.5
3  C=CC(=O)Nc1cccc(Nc2nc(Nc3ccc(N4CCN(C(C)=O)CC4)cc3OC)ncc2C(F)(F)F)c1                 °C           0.4
4  CO[C@@H]1[C@H](N(C)C(=O)c2ccccc2)C[C@H]2O[C@]1(C)n1c3ccccc3c3c4c(c5c6ccccc6n2c5c31)C(=O)NC4                 °C           0.1
5  COc1cccc2cc(-c3nc([C@H]4CC[C@H](C(=O)O)CC4)n4ncnc(N)c34)[nH]c12                 °C           2.2

I: C#Cc1cccc(Nc2ncnc3cc4c(cc23)OCCOCCOCCO4)c1
II: CCN1CCN(Cc2ccc(Nc3ncc(F)c(-c4cc(F)c5nc(C)n(C(C)C)c5c4)n3)nc2)CC1
QUERY: // compare measured ΔTm at 10 µM, left I , right II , return larger Refer to your chosen item by its label in the answer.
RESULT: II
(II: 0.9 °C, I: -0.2 °C)
